Test: in vitro
Set-up: Viability of infected HeLa host cells, resazurin conversion, bulk resorufin fluorescence relative to DMSO
Conditions: human, hela cells; bulk resorufin, mean of 3
// reported viability at 28.5 h, 0.111 µM per item
Kindly provide the numeric value in % only, without the unit symbol.

Consider the worked cases shown below.
[
  {
    "Compound": "COc1ccc([C@@H]2CN(C)C[C@H]2NC(=O)Nc2ccc(Cl)c(Cl)c2)cc1OC [c39e]",
    "Property Label": "viability at 28.5 h, 0.111 µM",
    "Observed": 83.9
  },
  {
    "Compound": "O=[N+]([O-])c1ccc2[nH]c3c(c2c1)CCCC3NC1CCN(CCc2ccccc2)CC1 (centres unmarked) [c23e]",
    "Property Label": "viability at 28.5 h, 0.111 µM",
    "Observed": 87.4
  },
  {
    "Compound": "Fc1cccc(F)c1OCCOc1nc(N2CCNCC2)ccc1C(F)(F)F [c21e]",
    "Property Label": "viability at 28.5 h, 0.111 µM",
    "Observed": 89.9
  },
  {
    "Compound": "COCC(=O)N[C@H]1C[C@H]2C(=O)Nc3ccc(/C=C/c4ccccc4)cc3C(=O)N2C1 [c25e]",
    "Property Label": "viability at 28.5 h, 0.111 µM",
    "Observed": 98.6
  },
  {
    "Compound": "O=C(Nc1ccc(OC(F)(F)F)cc1)Nc1cc(-c2cccs2)n[nH]1 [c26e]",
    "Property Label": "viability at 28.5 h, 0.111 µM",
    "Observed": 106
  }
]

Requested field: viability at 28.5 h, 0.111 µM. Item: Cc1cccc(OCC(C)NC(=O)NCCc2cnn(C)c2)c1 (centres unmarked) [c47e]
100

Requested field: viability at 28.5 h, 0.111 µM. Item: O=C1C(NCCO)=C(Nc2cccc(Cl)c2)C(=O)c2ccccc21 [c45e]
88.5

Requested field: viability at 28.5 h, 0.111 µM. Item: O=C(Nc1ccccc1N1CCCNCC1)c1ccc2ccccc2c1 [c29e]
116

Requested field: viability at 28.5 h, 0.111 µM. Item: COc1ccc2cc3c(nc2c1)OC(=O)N(CC1CC1)C3 [c32e]
84.5

Requested field: viability at 28.5 h, 0.111 µM. Item: OCCNc1nc(Nc2ccc(Br)cc2)nc2ccccc12 [c17e]
83.5

Requested field: viability at 28.5 h, 0.111 µM. Item: COc1ccc(C2CC(=O)C=C(Nc3cc(Cl)ccc3O)C2)cc1 (centres unmarked) [c24e]
84.5

Requested field: viability at 28.5 h, 0.111 µM. Item: CC1=C(C)C(=NNC(N)=S)C(C)=C(C)C1=NNC(N)=S [c19e]
107

Requested field: viability at 28.5 h, 0.111 µM. Item: Oc1ccccc1Nc1nc(NC2CCCC2)c2ccccc2n1 [c49e]
91.7

---

Test: in vitro
Settings: human, hela cells, % viability
Property Label: viability at 28.5 h, 10 µM (%)
Kindly provide the numeric value in % only, without the unit symbol.

[
  {
    "Compound": "CC[C@H]1CN(C(=O)NC(C)C)CC[C@H]1CC(=O)Nc1nccs1 [CBK288774]",
    "Observed": 109
  },
  {
    "Compound": "O=C(CN1C2CCC1CC(O)(c1ccco1)C2)N1c2ccccc2CCc2ccccc21 (stereo not drawn) [CBK286168]",
    "Observed": 94
  },
  {
    "Compound": "COc1ccc(OC)c(NS(=O)(=O)N(C)C)c1 [CBK005362]",
    "Observed": 94.1
  },
  {
    "Compound": "COc1cccc(C(=O)NC[C@H]2CC[C@H](c3cc(C(N)=O)c4ccccc4n3)CC2)c1OC [CBK285919]",
    "Observed": 88.6
  },
  {
    "Compound": "Cc1cc(C[C@@H]2COC[C@H]2NCc2cccs2)on1 [CBK282999]",
    "Observed": 95.8
  }
]

Requested field: viability at 28.5 h, 10 µM. Item: CCn1c(Cc2c(C)[nH]c3ccccc23)nnc1SCC(=O)NC12CC3CC(CC(C3)C1)C2 [CBK267529]
89.3

Requested field: viability at 28.5 h, 10 µM. Item: CC(C)CNC(=S)NNC(=O)CC(C)O (stereo not drawn) [CBK266921]
93.9

Requested field: viability at 28.5 h, 10 µM. Item: CC(=O)Nc1nnc(-c2ccc3c(c2)CCCC3)o1 [CBK287426]
88

Requested field: viability at 28.5 h, 10 µM. Item: Cc1cccc(NC(=O)CCC(=O)N/N=C/c2cccnc2)c1 [CBK262023]
103

---

Assay: in vitro
Conditions: human, hela cells, % viability
// reported viability at 28.5 h, 10 µM per item
Kindly provide the numeric value in % only, without the unit symbol.

[
  {
    "Compound": "COc1cc(OC)nc(C(NC(=O)C2CCN(C(=O)c3ccccc3)CC2)c2ccccc2)n1 (centres unmarked) [CBK059650]",
    "viability at 28.5 h, 10 µM, %": 99.7
  }
]

Requested field: viability at 28.5 h, 10 µM. Item: CCc1nnc(COC(=O)c2ccccc2NC(=O)Cc2ccccc2)o1 [CBK296762]
81.5

Requested field: viability at 28.5 h, 10 µM. Item: CC(=O)Cn1nnnc1C [CBK020588]
99.6

Requested field: viability at 28.5 h, 10 µM. Item: CC(=O)N(C)c1nc(-c2ccccc2C)ccc1C(=O)N(C)C [CBK106350]
89

Requested field: viability at 28.5 h, 10 µM. Item: Cc1ccc(SCCCn2ccnc2)cc1 [CBK269733C]
86.3

---

// reported viability at 28.5 h, 1 µM per item
Assay: in vitro
Parameters: Viability of infected HeLa host cells, resazurin conversion, bulk resorufin fluorescence relative to DMSO
Settings: human, hela cells; bulk resorufin, mean of 2
Kindly provide the numeric value in % only, without the unit symbol.

Consider the worked cases shown below.
[
  {
    "Compound": "Nc1nc(F)nc2c1ncn2[C@H]1C[C@@H](O)[C@@H](CO)O1",
    "Property Label": "viability at 28.5 h, 1 µM",
    "Observed": 93.5
  },
  {
    "Compound": "COc1cc(OC)c(CCNC2CCCc3c2cnn3C)c(OC)c1 (centres unmarked)",
    "Property Label": "viability at 28.5 h, 1 µM",
    "Observed": 97.4
  },
  {
    "Compound": "COc1ccc([C@@]23CC[C@@H](NC(=O)c4ccc(-c5ccccc5)cc4)CC2N(C)CC3)cc1OC (some centres unmarked) [CBK074973T]",
    "Property Label": "viability at 28.5 h, 1 µM",
    "Observed": 93.9
  }
]

Requested field: viability at 28.5 h, 1 µM. Item: `CC(C)(CNS(=O)(=O)c1ccc(F)cc1)CNS(=O)(=O)c1ccc(F)cc1`
112

Requested field: viability at 28.5 h, 1 µM. Item: `Cc1ccc(C(=O)NCCCN2CCC3(CC2)OCCc2c3[nH]c3ccccc23)cc1`
86.4

---

// reported viability at 28.5 h, 10 µM per item
Test: in vitro
Details: human, hela cells, % viability
Kindly provide the numeric value in % only, without the unit symbol.

Consider the worked cases shown below.
[
  {
    "Compound": "Clc1cccc(-n2cnnn2)c1Cl",
    "viability at 28.5 h, 10 µM / %": 77.7
  },
  {
    "Compound": "Cc1cc(CS(=O)(=O)N2CCOCC2c2cccc(F)c2)no1 (stereo not shown)",
    "viability at 28.5 h, 10 µM / %": 95.4
  },
  {
    "Compound": "Cc1cc(=O)n2ncn(CC(=O)NCCOc3ccccc3)c2c1",
    "viability at 28.5 h, 10 µM / %": 99.3
  }
]

Requested field: viability at 28.5 h, 10 µM. Item: COc1ccccc1-c1ncc(OC2CCN(C)C2)nc1N (stereo not shown)
92.4

Requested field: viability at 28.5 h, 10 µM. Item: `Cc1sc(-c2ccc(Cl)nc2)nc1OC(=O)c1cccs1`
94.5

Requested field: viability at 28.5 h, 10 µM. Item: `CCOc1cc(-c2noc(CCC(=O)N3CCN(C)CC3)n2)ccc1OC`
105

Requested field: viability at 28.5 h, 10 µM. Item: `O=C(O)CC1(CNC(=O)Cn2nc(-c3ccccc3)ccc2=O)CCCCC1`
84.1

Requested field: viability at 28.5 h, 10 µM. Item: COc1ccc(Cl)cc1NC(=O)C1CC(=O)N=C(N2CCOCC2)N1 (stereo not shown)
100

Requested field: viability at 28.5 h, 10 µM. Item: `COc1ccc(-c2c(-c3ccc(OCc4cnn(-c5ccccc5)c4)c(C)c3O)n[nH]c2C)cc1`
92.5

Requested field: viability at 28.5 h, 10 µM. Item: O=C(Nc1ccc(Cl)cc1Cl)C1CC2CCC1C2 (stereo not shown)
102
